Provenance of the data: patent US20230183355A1

Kindly supply the reported pKd values for the records listed here.
# TARGET UNDER TEST: T1, human CD11d/CD18 expressed on JY cells (human, UniProt Q13349 18-1161; P05107 23-769)
# T1 construct: whole, on cells
# T1 sequence (Q13349 18-1161, chain 1 of 2): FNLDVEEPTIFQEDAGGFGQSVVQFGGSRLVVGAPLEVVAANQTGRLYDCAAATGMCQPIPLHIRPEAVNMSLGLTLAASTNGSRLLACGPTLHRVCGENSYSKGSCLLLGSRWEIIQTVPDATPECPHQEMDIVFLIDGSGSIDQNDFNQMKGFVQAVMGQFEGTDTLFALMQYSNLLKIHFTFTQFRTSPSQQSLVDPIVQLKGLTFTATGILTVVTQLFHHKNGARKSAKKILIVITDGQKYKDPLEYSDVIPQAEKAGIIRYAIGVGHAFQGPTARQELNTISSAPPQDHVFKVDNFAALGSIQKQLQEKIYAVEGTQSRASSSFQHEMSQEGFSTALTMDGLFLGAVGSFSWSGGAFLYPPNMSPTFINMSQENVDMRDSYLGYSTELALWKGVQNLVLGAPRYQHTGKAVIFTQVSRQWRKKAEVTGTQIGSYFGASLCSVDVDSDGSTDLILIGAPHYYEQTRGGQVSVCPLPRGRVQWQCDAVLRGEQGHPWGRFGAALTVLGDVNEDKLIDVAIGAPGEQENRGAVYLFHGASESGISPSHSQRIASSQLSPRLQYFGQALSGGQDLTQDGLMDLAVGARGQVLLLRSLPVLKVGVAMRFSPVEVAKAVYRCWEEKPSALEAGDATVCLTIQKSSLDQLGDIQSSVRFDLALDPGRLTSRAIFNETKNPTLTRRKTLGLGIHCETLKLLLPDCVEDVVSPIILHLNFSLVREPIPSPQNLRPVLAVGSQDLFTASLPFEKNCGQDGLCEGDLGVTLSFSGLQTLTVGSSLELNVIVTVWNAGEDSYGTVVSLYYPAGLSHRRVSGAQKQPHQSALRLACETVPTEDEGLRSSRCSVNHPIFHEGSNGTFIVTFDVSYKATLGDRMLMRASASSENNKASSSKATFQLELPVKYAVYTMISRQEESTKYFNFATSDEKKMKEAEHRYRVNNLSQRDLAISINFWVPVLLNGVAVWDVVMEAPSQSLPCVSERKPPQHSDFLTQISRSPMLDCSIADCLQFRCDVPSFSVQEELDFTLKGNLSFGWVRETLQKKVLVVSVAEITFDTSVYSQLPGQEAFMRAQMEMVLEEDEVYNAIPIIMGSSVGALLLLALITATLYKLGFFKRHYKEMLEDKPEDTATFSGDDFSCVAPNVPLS
# T1 sequence (P05107 23-769, chain 2 of 2): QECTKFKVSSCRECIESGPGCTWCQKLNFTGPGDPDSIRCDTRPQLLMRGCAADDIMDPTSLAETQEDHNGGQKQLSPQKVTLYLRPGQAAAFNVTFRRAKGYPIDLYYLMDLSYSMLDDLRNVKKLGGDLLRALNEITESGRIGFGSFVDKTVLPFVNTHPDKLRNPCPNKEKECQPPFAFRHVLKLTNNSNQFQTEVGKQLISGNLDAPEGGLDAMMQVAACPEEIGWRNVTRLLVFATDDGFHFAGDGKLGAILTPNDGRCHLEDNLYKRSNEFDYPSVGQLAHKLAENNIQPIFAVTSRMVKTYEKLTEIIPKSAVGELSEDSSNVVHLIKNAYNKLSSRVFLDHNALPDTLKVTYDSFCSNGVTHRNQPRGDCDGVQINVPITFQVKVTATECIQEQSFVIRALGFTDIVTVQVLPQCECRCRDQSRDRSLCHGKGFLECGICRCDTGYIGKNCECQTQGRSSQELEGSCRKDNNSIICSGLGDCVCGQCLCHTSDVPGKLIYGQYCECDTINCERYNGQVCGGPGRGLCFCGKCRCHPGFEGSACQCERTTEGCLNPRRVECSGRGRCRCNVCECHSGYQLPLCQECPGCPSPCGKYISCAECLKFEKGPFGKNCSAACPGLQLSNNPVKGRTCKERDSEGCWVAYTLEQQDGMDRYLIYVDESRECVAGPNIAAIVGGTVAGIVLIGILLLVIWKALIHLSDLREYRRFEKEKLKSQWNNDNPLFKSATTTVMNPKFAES
# METHOD DESCRIPTION: FACS on JY cells expressing human CD11d/CD18; non-linear regression, one-site binding model
FYI, pKd means -log10 of a concentration in mol per litre.

Note to self: pKd recorded for Exemplified Antibody 2 (antibody, human IgG4 S228P, kappa, F234A L235A, V domains shown, Humanized antibody, full LC (kappa) and HC (IgG4)) VH: QVQLVQSGAEVKKPGASVKVSCKASGYTFGDYNMHWVRQAPGQGLEWMGYIYPYNGDTGYNQNFKSRVTMTRDTSTSTVYMELSSLRSEDTAVYYCARGLVHYGYLNVAMDSWGQGTLVTVSS VL: DIQMTQSPSSLSASVGDRVTITCRASRSIGTRIHWYQQKPGKAPKLLIYFASGSISGVPSRFSGSGSGTDFTLTISSLQPEDFATYYCQQSKIFPTTFGGGTKLEIKR was 9.52

Form field pKd, entry Exemplified Antibody 5 (antibody, human IgG4 S228P, kappa, F234A L235A, V domains shown, Humanized antibody, full LC (kappa) and HC (IgG4)) VH: QVQLVQSGAEVKKPGASVKVSCKASGYTFTDYNMHWVRQAPGQGLEWMGYIYPYSGDTGYNQNFKSRVTMTRDTSTSTVYMELSSLRSEDTAVYYCARGLIYYGYLNVAMDSWGQGTLVTVSS VL: DIQMTQSPSSLSASVGDRVTITCRASESIGTRIHWYQQKPGKAPKLLIYFASESISGVPSRFSGSGSGTDFTLTISSLQPEDFATYYCQQSKIWPTTFGGGTKLEIKR : 9.46

The reported value for Exemplified Antibody 3 (antibody, human IgG4 S228P, kappa, F234A L235A, V domains shown, Humanized antibody, full LC (kappa) and HC (IgG4)) VH: QVQLVQSGAEVKKPGASVKVSCKASGYTFTDYNMHWVRQAPGQGLEWMGYIYPYSGDTGYNQNFKSRVTMTRDTSTSTVYMELSSLRSEDTAVYYCARGLIYYGYLNVAMDSWGQGTLVTVSS VL: DIQMTQSPSSLSASVGDRVTITCRASQSIGTRIHWYQQKPGKAPKLLIYFASESISGVPSRFSGSGSGTDFTLTISSLQPEDFATYYCQQSKIGPTTFGGGTKLEIKR in terms of pKd is 9.52

For this binder ( Exemplified Antibody 4 (antibody, human IgG4 S228P, kappa, F234A L235A, V domains shown, Humanized antibody, full LC (kappa) and HC (IgG4)) VH: QVQLVQSGAEVKKPGASVKVSCKASGYTFYDYNMHWVRQAPGQGLEWMGYIYPYNGDTGYNQNFKSRVTMTRDTSTSTVYMELSSLRSEDTAVYYCARGLIHYGYLNVAMDSWGQGTLVTVSS VL: DIQMTQSPSSLSASVGDRVTITCRASRSIGTRIHWYQQKPGKAPKLLIYFASGSISGVPSRFSGSGSGTDFTLTISSLQPEDFATYYCQQSKIFPTTFGGGTKLEIKR ), measured pKd is 9.48
